assayed-system: human TSLP (human, UniProt Q969D9 29-159)
protocol-summary: cell-based or functional assay
experimental-readout: IC50 TARC (nM)
The figure you give is taken to be in nM; do not add the unit.

Examples with answers:
binder: BDG38.112 (antibody, V domains shown, IgG1) VH: QMQLVESGGGVVQPGRSLRLSCAASGFEFRTYGMHWVRQAPGKGLEWLGVIWYDGSNTHYADSVKGRFTITRDNSKNTLNLQMNSLRAEDTAVYYCVRAPQWYLTAEAFDLWGQGTMVTVSS VL: SYILTQPPSVSVAPGQTATITCGGNLIGARLVHWYQQKPGQAPVLVIYDDSDRPSRIPERFSGSNIGNTATLTIERVEEGDEADYYCQVWDYSSDTYVFGGGTKLTVL
recorded-number: 0.104

binder: BDG38.075 (antibody, V domains shown, IgG1) VH: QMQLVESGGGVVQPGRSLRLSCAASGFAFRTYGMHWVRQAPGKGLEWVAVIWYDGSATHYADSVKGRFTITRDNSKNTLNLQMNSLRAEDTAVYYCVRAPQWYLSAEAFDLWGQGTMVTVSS VL: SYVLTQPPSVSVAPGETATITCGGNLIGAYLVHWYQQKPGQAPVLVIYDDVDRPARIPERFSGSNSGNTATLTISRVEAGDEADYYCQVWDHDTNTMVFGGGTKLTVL
recorded-number: 4.17

Then this binder:
In: Value lookup for IC50 TARC; key = BDG38.078 (antibody, V domains shown, IgG1) VH: QMQLVESGGGVVQPGRSLRLSCAASGFEFRTYGMHWVRQAPGKGLEWLGVIWYDGSNTHYADSVKGRFTITRDNSKNTLNLQMNSLRVEDTAVYYCVRAPQWYLTAEAFDLWGQGTMVTVSS VL: SYILTQPPSVSVAPGETATITCGGNLIGARLVHWYQQKPGQAPVLVIYDDSDRPSRIPERFSGSNIGNTATLTIERVEAGDEADYYCQVWDYYSDHMVFGGGTKLTVL
Out: 6.52

Hello, the source for this data is patent US20240059769A1, in case you need it.
